- PROCEDURE_DETAILS: 28-day study toxicokinetics of brincidofovir and CDV in plasma
- Assay type: in vivo, Sprague-Dawley CD rats
- EXPERIMENTAL_SETUP: both sexes, Sprague-Dawley CD, rat, in vivo, iv, 4 mg/kg, plasma brincidofovir; Day 1; 4 mg/kg; combined male and female; Mean
METRIC: Cmax

Record summary for `CCCCCCCCCCCCCCCCOCCCOP(=O)(O)CO[C@H](CO)Cn1ccc(N)nc1=O` : reported Cmax = 1010 ng/mL

----------
- PROCEDURE_DETAILS: Phase 2 toxicokinetics of brincidofovir and cidofovir in plasma
- Type: in vivo, Sprague-Dawley CD rats
- EXPERIMENTAL_SETUP: male, Sprague-Dawley CD, rat, plasma, intravenous, 15 mg/kg, plasma; 15 mg/kg; male rats; Day 7; 8 h; read-out: IC (Imputed Concentration), individual animals
- Method: Plasma samples (108) were collected 2 hours following the initiation of dosing on Day 1 and Day 7 (Group 1), or at 1, 2, 8, and 24 hours following the initiation of dosing on Day 1, and prior to administration and at 2, 8, and 24 hours following the initiation of dosing on Day 7 (Groups 2 and 3), and analyzed to determine the concentrations of brincidofovir and the metabolite, cidofovir), by LC/MS/MS. […]
METRIC: concentration at 8 h (ng/mL)
Give bare numbers, in ng/mL.

Record summary for `CCCCCCCCCCCCCCCCOCCCOP(=O)(O)CO[C@H](CO)Cn1ccc(N)nc1=O` : reported concentration at 8 h = 9.82

----------
- PROCEDURE_DETAILS: IV BCV single ascending dose study: plasma BCV and CDV PK
- Assay type: in vivo, human
- EXPERIMENTAL_SETUP: human, plasma, iv, 10 mg, plasma BCV, Cohort 1, BCV 10 mg 2 h IV infusion, n = 6; read-out: Vss
METRIC: Vd (L)
Give bare numbers, in L.

Record summary for `CCCCCCCCCCCCCCCCOCCCOP(=O)(O)CO[C@H](CO)Cn1ccc(N)nc1=O` : reported Vd = 16.4

----------
- PROCEDURE_DETAILS: Plasma BCV PK following single dose oral tablet administration (Table 105)
- Assay type: in vivo
- EXPERIMENTAL_SETUP: human, plasma, po, 350 mg, 350 mg Oral Tablet, N = 70, geometric mean
METRIC: Cmax (ng/mL)
Numbers only, in ng/mL.

Record summary for `CCCCCCCCCCCCCCCCOCCCOP(=O)(O)CO[C@H](CO)Cn1ccc(N)nc1=O` : reported Cmax = 1480

----------
- PROCEDURE_DETAILS: Phase 2 toxicokinetics of brincidofovir and cidofovir in plasma
- Type: in vivo, Sprague-Dawley CD rats
- EXPERIMENTAL_SETUP: female, Sprague-Dawley CD, rat, plasma, iv, 15 mg/kg, brincidofovir in plasma; 15 mg/kg 2-hour IV infusion, Female rats, Day 1
METRIC: Cmax (ng/mL)
Numbers only, in ng/mL.

Record summary for `CCCCCCCCCCCCCCCCOCCCOP(=O)(O)CO[C@H](CO)Cn1ccc(N)nc1=O` : reported Cmax = 3470

----------
- PROCEDURE_DETAILS: Phase 2 toxicokinetics of brincidofovir and cidofovir in plasma
- Type: in vivo, Sprague-Dawley CD rats
- EXPERIMENTAL_SETUP: male, Sprague-Dawley CD, rat, plasma, intravenous, 15 mg/kg, brincidofovir 15 mg/kg, Male, Day 7, 24 h; read-out: brincidofovir Mean Concentration (MC)
METRIC: concentration at 24 h (ng/mL)
Answers are plain numbers, in ng/mL.

Record summary for `CCCCCCCCCCCCCCCCOCCCOP(=O)(O)CO[C@H](CO)Cn1ccc(N)nc1=O` : reported concentration at 24 h = 1.45
